These measurements were taken from PubChem BioAssay AID1745844.

# System: rodent lifetime carcinogenesis bioassay, tumor incidence TD50
# assay.text: carcinogenic potency in animals, long-term in vivo studies, CPDB compilation (AID 1745844)
# measurement.setup: rat; strain Sprague-Dawley; females; inhaled; site: extrahepatic tissue; lesion: angioma; dosed 52 weeks; study length 139 weeks
outcome.measure: TD50 (mg/kg/day)

>>> print(df.to_string())
   chemical_string                         system_under_test  quantitative_result
0            C=CCl  rodent lifetime carcinogenesis bioassay, tumor incidence TD50                  399

----------
# System: rodent lifetime carcinogenesis bioassay, tumor incidence TD50
# assay.text: carcinogenic potency in animals, long-term in vivo studies, CPDB compilation (AID 1745844)
# measurement.setup: mouse; strain B6C3F1; females; in feed; site: uterus; lesion: hemangioendothelioma; dosed 100 weeks; study length 100 weeks
outcome.measure: TD50

>>> print(df.to_string())
                           chemical_string  outcome_measure          result
0  Cn1cnc([N+](=O)[O-])c1Sc1ncnc2nc[nH]c12             TD50  8.92 mg/kg/day

----------
# System: rodent lifetime carcinogenesis bioassay, tumor incidence TD50
# assay.text: carcinogenic potency in animals, long-term in vivo studies, CPDB compilation (AID 1745844)
# measurement.setup: rat; strain Charles River CD (Sprague-Dawley); females; i.p.; site: lung; lesion: carcinoma; dosed 26 weeks; study length 78 weeks
outcome.measure: TD50

>>> print(df.to_string())
                           chemical_string                         system_under_test          result
0  O[C@@H]([C@H](O)[C@H](O)CBr)[C@H](O)CBr  rodent lifetime carcinogenesis bioassay, tumor incidence TD50  84.6 mg/kg/day

----------
# Test system: rodent lifetime carcinogenesis bioassay, tumor incidence TD50
# assay.text: carcinogenic potency in animals, long-term in vivo studies, CPDB compilation (AID 1745844)
# measurement.setup: mouse; strain B6C3F1; females; by gavage; site: liver; lesion: hepatocellular adenoma; dosed 105 weeks; study length 107 weeks
outcome.measure: TD50

In [3]: df
Out[3]:
         chemical_string         result
0  Cc1ccc(N=C=O)cc1N=C=O  250 mg/kg/day

----------
# Tested on: rodent lifetime carcinogenesis bioassay, tumor incidence TD50
# assay.text: carcinogenic potency in animals, long-term in vivo studies, CPDB compilation (AID 1745844)
# measurement.setup: mouse; strain B6C3F1; males; inhaled; site: Harderian gland; lesion: adenoma + adenoma, bilateral + carcinoma; dosed 104 weeks; study length 104 weeks
outcome.measure: TD50

>>> df
   chemical_string  outcome_measure          result
0       C=CC(=C)Cl             TD50  60.9 mg/kg/day

----------
# Tested on: rodent lifetime carcinogenesis bioassay, tumor incidence TD50
# assay.text: carcinogenic potency in animals, long-term in vivo studies, CPDB compilation (AID 1745844)
# measurement.setup: rat; strain Alpk:APfSD; females; by gavage; site: liver; lesion: biliary cystadenoma; dosed 88 weeks; study length 107 weeks
outcome.measure: TD50 (mg/kg/day)

>>> print(df.to_string())
                            chemical_string  outcome_measure  readout_units  quantitative_result
0  CC/C(=C(\c1ccccc1)c1ccc(OCCN(C)C)cc1)c1ccccc1             TD50      mg/kg/day                  706

----------
# Tested on: rodent lifetime carcinogenesis bioassay, tumor incidence TD50
# assay.text: carcinogenic potency in animals, long-term in vivo studies, CPDB compilation (AID 1745844)
# measurement.setup: rat; strain Fischer 344; females; in feed; site: liver; lesion: hyperplastic nodule; dosed 104 weeks; study length 104 weeks
Active and inactive are the calls of the source. How the calls were made is not given here.
outcome.measure: carcinogen call

              chemical_string               result
0        Brc1cc(Br)c2cccnc2c1  negative (inactive)
1             Cc1cccc2cccnc12  negative (inactive)
2  O=[N+]([O-])c1cccc2cccnc12  negative (inactive)
3  O=[N+]([O-])c1ccc2ncccc2c1  negative (inactive)

----------
# Test system: rodent lifetime carcinogenesis bioassay, tumor incidence TD50
# assay.text: carcinogenic potency in animals, long-term in vivo studies, CPDB compilation (AID 1745844)
# measurement.setup: rat; strain Sprague-Dawley; males; inhaled; site: Zymbal's gland; lesion: carcinoma; dosed 25 weeks; study length 115 weeks
outcome.measure: TD50

In [3]: df
Out[3]:
   chemical_string         result
0            C=CCl  284 mg/kg/day

----------
# Tested on: rodent lifetime carcinogenesis bioassay, tumor incidence TD50
# assay.text: carcinogenic potency in animals, long-term in vivo studies, CPDB compilation (AID 1745844)
# measurement.setup: mouse; strain Swiss; females; i.p.; site: all sites; lesion: lymphosarcoma; dosed 26 weeks; study length 61 weeks
outcome.measure: TD50

>>> print(df.to_string())
            chemical_string       result
0  CN(C)N=Nc1nc[nH]c1C(N)=O  8 mg/kg/day

----------
# Tested on: rodent lifetime carcinogenesis bioassay, tumor incidence TD50
# assay.text: carcinogenic potency in animals, long-term in vivo studies, CPDB compilation (AID 1745844)
# measurement.setup: mouse; strain B6C3F1; females; inhaled; site: liver; lesion: hepatocellular carcinoma; dosed 26 weeks; study length 104 weeks
outcome.measure: TD50

In [3]: df
Out[3]:
   chemical_string          result
0            ClCCl  6790 mg/kg/day

----------
# Test system: rodent lifetime carcinogenesis bioassay, tumor incidence TD50
# assay.text: carcinogenic potency in animals, long-term in vivo studies, CPDB compilation (AID 1745844)
# measurement.setup: mouse; strain B6C3F1; males; oral dosing; site: any site (literature study); lesion: several types; types named in the paper; dosed 70 weeks; study length 70 weeks
outcome.measure: TD50

>>> print(df.to_string())
   chemical_string          result
0        CCOC(N)=O  22.4 mg/kg/day

----------
# Tested on: rodent lifetime carcinogenesis bioassay, tumor incidence TD50
# assay.text: carcinogenic potency in animals, long-term in vivo studies, CPDB compilation (AID 1745844)
# measurement.setup: rat; strain MRC-Wistar; females; in drinking water; site: all sites; lesion: B-cell lymphoma; dosed 39 weeks; study length 85 weeks
outcome.measure: TD50

>>> df
   chemical_string                         system_under_test  outcome_measure          result
0  NC(=O)N(CCO)N=O  rodent lifetime carcinogenesis bioassay, tumor incidence TD50             TD50  3.16 mg/kg/day

----------
# Test system: rodent lifetime carcinogenesis bioassay, tumor incidence TD50
# assay.text: carcinogenic potency in animals, long-term in vivo studies, CPDB compilation (AID 1745844)
# measurement.setup: mouse; strain B6AKF1; females; oral dosing; site: any site (literature study); lesion: several types; types named in the paper; dosed 76 weeks; study length 76 weeks
Active and inactive are the calls of the source. How the calls were made is not given here.
outcome.measure: TD50

                                   molecule                         system_under_test  outcome_measure                     result
0        Clc1ccc(C(c2ccc(Cl)cc2)C(Cl)Cl)cc1  rodent lifetime carcinogenesis bioassay, tumor incidence TD50             TD50             37.4 mg/kg/day
1  CC(=O)[O][Sn]([c]1ccccc1)([c]1ccccc1)[c]1ccccc1  rodent lifetime carcinogenesis bioassay, tumor incidence TD50             TD50   437 mg/kg/day (inactive)
2                      Cc1cc(O)cc(C)c1N(C)C  rodent lifetime carcinogenesis bioassay, tumor incidence TD50             TD50   220 mg/kg/day (inactive)
3                           C[N+](C)(C)CCCl  rodent lifetime carcinogenesis bioassay, tumor incidence TD50             TD50             33.5 mg/kg/day
4                        CCCCN(CC)C(=O)SCCC  rodent lifetime carcinogenesis bioassay, tumor incidence TD50             TD50   219 mg/kg/day (inactive)
5                 CC(C)Oc1ccc(Nc2ccccc2)cc1  rodent lifetime carcinogenesis bioassay, tumor incidence TD50             TD50  1200 mg/kg/day (inactive)
6  COC(C(=O)O)c1ccccc1 (configuration not stated)  rodent lifetime carcinogenesis bioassay, tumor incidence TD50             TD50   227 mg/kg/day (inactive)

----------
# Test system: rodent lifetime carcinogenesis bioassay, tumor incidence TD50
# assay.text: carcinogenic potency in animals, long-term in vivo studies, CPDB compilation (AID 1745844)
# measurement.setup: mouse; strain B6C3F1; males; in drinking water; site: any site (literature study); lesion: several types; types named in the paper; dosed 103 weeks; study length 103 weeks
outcome.measure: TD50 (mg/kg/day)

In [3]: df
Out[3]:
   chemical_string  quantitative_result
0         c1ccncc1                25700
